# assayed_target: T1, mucin domain-deleted Sudan GP (GPdMuc) (Sudan virus (SUDV), UniProt Q7T9D9 33-632)
# T1 construct: also called Sudan GPdMuc; GP(S)dMuc
# procedure_text: BLI competition on Sudan GPdMuc (lower table); competitor 316L
observation_type: % inhibition of binding (%)
Write down the numeric answer in % and omit the unit.

binder="antibody 405S (antibody, V domains shown) VH: EVQLVESGGGLIQPGGSLRLSCAASGFTVSSHYMSWVRQAPGKGLEWVSGIYSGGRTHYADSVKGRFTISRDNSKNTLYLQMNSLRADDTAVYSCARGTLLYLYGMDVWGQGTTVTVSS VL: QSVLTQPPSVSAAPGQRVTISCTGSSSNIGAGYNVHWYQQLPGAAPKLLIYGNTNRPSGVPDRFSGSKSGTSASLAITGLQAEDEADYYCQSFDSSLSGVFGTGTKVTVL" unit_annotation=% quantitative_result=7.24

Which % inhibition of binding value is on record for antibody 335S (antibody, V domains shown) VH: EVQLVESGGGVVQPGRSLRLSCAASGFSFSNYAMHWVRQAPGKGLEWVAVTWYDGSSKYHADSVKGRFTISRDNSKNTLYLQMNSLRAEDTAVYYCARWGMGIVASPGNVLNYYYFMDVWGQGTTVIVSS VL: SYELTQPPSVSVSPGQTARITCSGNPLPKKHTYWYQQKPGQAPVLMIYKDSERPSRIPERFSGSSSGTTVTLTISGVQAEDEADYYCQSADSTGIVVFGGGTKLTVL ?
1.49
